# protocol summary: Pharmacokinetic evaluation in mice (2), plasma
# Format: in vivo, Balb/c male mice
# experimental conditions: male, Balb/c, 10 mg/kg; mouse plasma, PO 10 mpk
measurement type: AUC(0-t)
Answer by giving the amount and then stating its unit.

May I ask what AUC(0-t) has been recorded for Cc1cc2ncnn2cc1Nc1ncc2c(n1)n(N1CC3CCC(C1)O3)c(=O)n2C [Compound 5] ? 23.2 µM·h

----------
# protocol summary: Pharmacokinetic and brain exposure evaluation in rats
# Assay type: in vivo, SD male rats
# experimental conditions: male, SD, 40 mg/kg; rat, PO 40 mpk, Plasma
measurement type: AUC(0-t) (µM·h)
Report the figure in µM·h without appending any unit label.

Recorded AUC(0-t) of Cc1cc2ncnn2cc1Nc1ncc2c(n1)n(N1CC3CCC(C1)O3)c(=O)n2C , please. 59.9

----------
# protocol summary: Pharmacokinetic evaluation (1): cassette PK in Balb/c male mice, plasma
# Format: in vivo
# experimental conditions: male, Balb/c; mouse plasma, IV 1 mg/kg
measurement type: AUC(0-t) (µM·h)
# unit: µM·h | format: bare number

Could you tell me which AUC(0-t) is on file for Cc1cc2ncnn2cc1Nc1ncc2c(n1)n(N1CC3CCC(C1)O3)c(=O)n2C [Compound 5] ? 1.66

----------
# protocol summary: Pharmacokinetic evaluation (1): cassette PK in Balb/c male mice, plasma
# Format: in vivo
# experimental conditions: mouse plasma, PO 2 mg/kg
measurement type: Cmax (nM)
Give a bare numeral; the unit nM is implied.

Which Cmax is reported for this compound? Cc1cc2ncnn2cc1Nc1ncc2c(n1)n(N1CCOCC1)c(=O)n2C [Compound 1] 1420

----------
# protocol summary: Pharmacokinetic and brain exposure evaluation in rats
# Type: in vivo, SD male rats
# experimental conditions: male, SD, 1 mg/kg; rat plasma, IV 1 mpk
measurement type: AUC(0-t)

Form field: reported AUC(0-t) of Cc1cc2ncnn2cc1Nc1ncc2c(n1)n(N1CC3CCC(C1)O3)c(=O)n2C 2.38 µM·h

----------
# protocol summary: Pharmacokinetic and brain exposure evaluation in rats
# Type: in vivo, SD male rats
# experimental conditions: male, SD, 40 mg/kg; rat, PO 40 mpk, Cerebrospinal fluid
measurement type: Tmax (h)
Please state the figure in h; there is no need to write the unit.

Bench note: what Tmax did Cc1cc2ncnn2cc1Nc1ncc2c(n1)n(N1CC3CCC(C1)O3)c(=O)n2C show? 2

----------
The entries below come with measured Tlast values attached.
# protocol summary: Pharmacokinetic evaluation (1): cassette PK in Balb/c male mice, plasma
# Assay type: in vivo
# experimental conditions: mouse plasma, IV 0.4 mg/kg
The response must be a number in h with no trailing unit.

smi: Cc1cc2ncnn2cc1Nc1ncc2c(n1)n(N1CCOC3(CC3)C1)c(=O)n2C
Tlast (h): 4
//
smi: Cc1cc2ncnn2cc1Nc1ncc2c(n1)n(N1C3CCC1COC3)c(=O)n2C
Tlast (h): 2
//
smi: Cc1cc2ncnn2cc1Nc1ncc2c(n1)n(N1CCOCC1)c(=O)n2C
Tlast (h): 4

Then there is this compound:
# lookup: Tlast of Cc1cc2nncn2cc1Nc1ncc2c(n1)n(N1CC3CCC(C1)O3)c(=O)n2C 4

----------
# protocol summary: Pharmacokinetic evaluation (1): cassette PK in Balb/c male mice, plasma
# Assay type: in vivo
# experimental conditions: male, Balb/c; mouse plasma, PO 5 mg/kg; read-out: Tmax
measurement type: Tmax (min)
Report as a plain number; the unit min is understood.

Which value of Tmax has been reported for Cc1cc2ncnn2cc1Nc1ncc2c(n1)n(N1CC3CCC(C1)O3)c(=O)n2C [Compound 5] in the records? 15
